The origin of these recorded values is ChEMBL document CHEMBL1135860.

- tgt: 5-hydroxytryptamine receptor 7 (Homo sapiens, UniProt P34969)
- Sequence (P34969 whole entry): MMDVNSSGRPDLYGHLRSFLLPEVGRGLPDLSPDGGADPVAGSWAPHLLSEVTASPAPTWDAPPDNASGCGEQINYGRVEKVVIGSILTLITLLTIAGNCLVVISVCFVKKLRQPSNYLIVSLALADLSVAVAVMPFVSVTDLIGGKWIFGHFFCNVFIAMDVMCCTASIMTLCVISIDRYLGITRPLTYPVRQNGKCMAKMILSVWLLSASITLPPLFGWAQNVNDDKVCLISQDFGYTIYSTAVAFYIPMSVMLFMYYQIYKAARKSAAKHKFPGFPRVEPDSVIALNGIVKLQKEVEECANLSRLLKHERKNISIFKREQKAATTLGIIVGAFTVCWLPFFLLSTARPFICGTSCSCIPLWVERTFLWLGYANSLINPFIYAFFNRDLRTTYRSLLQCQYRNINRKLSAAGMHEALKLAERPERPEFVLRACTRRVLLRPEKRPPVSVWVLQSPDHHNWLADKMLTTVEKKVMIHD
- experiment_summary: Binding affinity towards human 5-hydroxytryptamine 7 receptor on HEK293 cells using radioligand [3H]LSD
- Format: cell-based
pKi: −log10 of the molar value.
Think of 7 as a floor: if pKi stands on it or above, it is Yes; beneath it, No.

Input line: # bool: pKi of FC(F)(F)c1ccc2ccn(CCN3CCCN4CCCCC4C3)c2c1 (configuration not stated) >= 7
Output line: Yes

Input line: # bool: pKi of COc1ccc2ccn(CCN3CCCN(C)CC3)c2c1 >= 7
Output line: No

Input line: # bool: pKi of CCc1ccc2ccn(CCN3CCCN(C)CC3)c2c1 >= 7
Output line: No

Input line: # bool: pKi of Brc1ccc2ccn(CCN3CCCN4CCCCC4C3)c2c1 (configuration not stated) >= 7
Output line: Yes

Input line: # bool: pKi of Brc1ccc2ccn(CCN3CCCN(C4CCCCC4)CC3)c2c1 >= 7
Output line: Yes

Input line: # bool: pKi of CN1CCCN(CCn2ccc3ccc(F)cc32)CC1 >= 7
Output line: No

Input line: # bool: pKi of CN1CCCN(CCn2ccc3ccc(C(F)(F)F)cc32)CC1 >= 7
Output line: Yes

Input line: # bool: pKi of CN1CCCN(CCn2ccc3ccc(Cl)cc32)CC1 >= 7
Output line: Yes

Input line: # bool: pKi of CN1CCCN(CCn2ccc3ccc(OCc4ccccc4)cc32)CC1 >= 7
Output line: No

Input line: # bool: pKi of Brc1ccc2ccn(CCN3CCCN(C4CC4)CC3)c2c1 >= 7
Output line: Yes
